test system: SNB-19; test: NCI tumour cell line growth inhibition, 48 h
The source made the active and inactive calls. Cut-off read from the data, not from the text of the source: active = GI50 up to about 1.1 µM and inactive = higher.
Field 'call' accepts active, inactive

INSERT INTO measurements (molecule, classification) VALUES
  ('C=C1CCC2[C@@H](CCC3[C@]2(C)CCC[C@]3(C)C(=O)OC)C1CCO (some centres not stated)', 'inactive');

Each molecule tested received a call. Report the one for CCOC(=O)c1cccnc1C(OC(C)=O)OC(C)=O .
inactive

Same for C#CCN(Cc1ccc2nc(-c3ccccc3)c(Cl)nc2c1)c1cc(OC)c(OC)c(OC)c1
inactive

Same for C/C(=N\O)c1ccc2cc(Br)c3ccccc3c2c1
inactive

Same for COc1ccc(C(=O)N2CCN(c3ccc4c(c3)OCC(=O)N4)CC2)cc1OC
inactive

Same for CCCCCCCCCCCC[C@@H](O)[C@H]1CC[C@H]([C@H](O)CC[C@H](O)[C@@H]2CC[C@@H](CCCCCCCC3=C[C@H](C)OC3=O)O2)O1
inactive

Same for C/C=C(\C)C(=O)OC1C(C)=C2C(C1OC(=O)CCCC)C(C)(OC(C)=O)CC(OC(=O)CCCC)C1(O)C2OC(=O)C1(C)O (configuration not stated)
active

====

What GI50 was measured for each of the following?
test system: TK-10; test: NCI tumour cell line growth inhibition, 48 h
Activity calls are given as the source filed them. No stated cut-off is given here; in the data, active = GI50 up to about 1.1 µM and inactive = higher.

Example entries and their recorded answers appear below.
INSERT INTO measurements (molecule, property_label, result) VALUES
  ('COc1ccc(C(C2C(=O)N(C)C(=O)N(C)C2=O)C(F)(F)C(=O)N(C)C)cc1 (stereo unspecified)', 'GI50', '> 100 µM (inactive)'),
  ('CC(C)=CCN1c2ccc(Cl)cc2NC(=O)CC1C (stereo unspecified)', 'GI50', '35.2 µM (inactive)'),
  ('CCOC(=O)c1ccc(C(=O)n2ccnc2)[nH]1', 'GI50', '> 100 µM (inactive)'),
  ('COc1ccc(C2NC3=C(CCCC3)N2)cc1', 'GI50', '> 100 µM (inactive)');

Dear colleague, could you please provide GI50 for the molecules listed below?
1. CC(=O)[C@@]1(c2ccccc2)CC2(CCN(C)CC2)O[C@H]1C
2. NC(C(=O)O)c1ccc(C(=O)O)cc1 (stereo unspecified)

1. > 100 µM (inactive)
2. > 100 µM (inactive)

Dear colleague, could you please provide GI50 for the molecules listed below?
1. CCN(CCO)C(=O)C1(c2ccccc2)CCCCC1
2. O=C(/C=C/c1ccccc1O)c1ccc([N+](=O)[O-])cc1

> 10 µM (inactive)
26.7 µM (inactive)

Dear colleague, could you please provide GI50 for the molecules listed below?
1. COc1cccc(/C=C2\C(=O)N(C(=O)Cc3ccccc3)N=C2C)c1
2. CC(C)(Oc1ccccc1)C(=O)Sc1c(-c2ccccc2)c(=O)n(-c2ccccc2)c(=S)n1-c1ccccc1
3. CCOc1cc2c(cc1O)CC[C@@H]1[C@@H]2CC[C@]2(C)C(N)CC[C@@H]12 (stereo partly specified)

["> 100 µM (inactive)", "92.5 µM (inactive)", "9.2 µM (inactive)"]

====

system: A549; assay: NCI tumour cell line growth inhibition, 48 h
Active and inactive are the calls of the source. Cut-off read from the data, not from the text of the source: active = GI50 up to about 1.1 µM and inactive = higher.
Field 'call' accepts active, inactive

INSERT INTO results (compound, classification) VALUES
  ('CCN1CCC(O)(/C=C/c2ccc(C)cc2C)C(C(=O)/C=C/c2ccc(C)cc2C)C1 (configuration not stated)', 'inactive');

Each compound tested received a call. Report the one for CC[C@H]1C=CCC[C@@]2(C[C@@H]3CC[C@@H]4[C@H](C(=O)OCCCCCCCCCCCCCCCC(=O)N(CCCN)CCCCN)[C@]5(CCC[C@@H](C)O5)NC(=[N+]34)N2)O1 .
active

Same for CC(C)(C)OC(=O)NC(Cc1ccc(OCc2ccccc2)cc1)C(=O)NC(COCc1ccccc1)C(=O)Oc1c(Cl)c(Cl)c(Cl)c(Cl)c1Cl (configuration not stated)
inactive

Same for COc1ccc(C2S/C(=C\c3ccccc3O)C(=O)N2NC(=O)Cc2ccccc2)cc1 (configuration not stated)
inactive

Same for O=C(N/N=C1\C(=O)Nc2ccc(Br)cc21)/C(O)=C/C(=O)c1ccc(Cl)cc1
inactive

Same for Oc1cc2c3c(c1)CCCN3CCC2
inactive

Same for CC1OC(OCC2OC(Oc3c(-c4ccc(O)cc4)oc4cc(O)cc(O)c4c3=O)C(OC3OCC(O)(CO)C3O)C(O)C2O)C(O)C(O)C1O (configuration not stated)
inactive

Same for CC(=O)OCC(=O)[C@@]1(O)CC[C@H]2[C@@H]3C[C@H](C)C4=CC(=O)C=C[C@]4(C)[C@@]3(F)[C@@H](O)C[C@@]21C
inactive

Same for C#CCN(Cc1ccc2nc(-c3ccccc3)c(Cl)nc2c1)c1cc(OC)c(OC)c(OC)c1
inactive

Same for C[C@H](CCC1SC1(C)C)C1CCC2(C)C3=C(CC[C@]12C)[C@@]1(C)CC[C@H](O)C(C)(C)C1CC3 (some centres not stated)
inactive

Same for O=P1(O)c2ccccc2CS(=O)(=O)Cc2ccccc21
inactive

Same for O=c1ccn(CC2(CO)CCC2)c(=O)[nH]1
inactive

Same for O=[N+]([O-])c1cccc2c(/N=N/c3ccc4ccccc4c3O)c(O)cc(S(=O)(=O)O)c12
inactive

Same for COC(=O)C1(Cc2ccc3c(c2)CCC3)Cc2cc3c(cc2C1=O)CCC3 (configuration not stated)
inactive

Same for C/C(NC(=O)c1ccccc1)=C(/C(=O)c1ccccc1)[C@@H]1OC(C)(C)O[C@@H]1[C@H]1COC(C)(C)O1
inactive

Same for O=C1C2c3[nH]c4ccccc4c3C3CCCC3C2C(=O)N1c1ccccc1 (configuration not stated)
inactive

Same for CC(C)COC(=O)c1ccc(/N=C\c2ccc(/C=N/c3ccc(C(=O)OCC(C)C)cc3)cc2)cc1
inactive
